System: lysozyme
Test: ESI-MS of lysozyme glycoforms after incubation with D-ribose
Details: lysozyme with one carboxymethylated Lys residue (14,364 Da); 37° C., 5 days
metric: Peak area as % of total area of all glycoforms, 14,364 (%)

>>> recorded_measurement("O=C1c2c(O)ccc(O)c2C(=O)c2c(NCCNCCO)ccc(NCCNCCO)c21 [Mitoxantrone]")
1.6
>>> recorded_measurement("Cc1ncc([N+](=O)[O-])n1CC(O)CCl (centres unmarked) [Ornidazole]")
3.2
>>> recorded_measurement("Oc1cc(O)c2c(c1)O[C@H](c1ccc(O)c(O)c1)[C@@H](O)C2 [(+)-Catechin]")
2.0
>>> recorded_measurement("COc1ccc2c(c1)c(CC(=O)O)c(C)n2C(=O)c1ccc(Cl)cc1 [Indomethacin]")
5.1
>>> recorded_measurement("O=c1cc(-c2ccc(O)c(O)c2)oc2ccc(O)cc12 [6,3′,4′-Trihydroxyflavone]")
2.0

----------
// values below are IC50; system is bovine serum albumin (BSA)
metric: IC50

>>> recorded_measurement("O=Cc1ccc(O)c(O)c1 [3,4-Dihydroxybenzaldehyde]")
"120 µM"
>>> recorded_measurement("O=c1cc(-c2ccc(O)c(O)c2)oc2cc(O)cc(O)c12 [Luteolin]")
"60 µM"
>>> recorded_measurement("O=c1cc(-c2ccc(O)cc2)oc2cc(O)cc(O)c12 [Apigenin]")
"130 µM"
>>> recorded_measurement("O=c1cc(CO)occ1O [Kojic acid]")
"> 4000 µM"
>>> recorded_measurement("CCCOC(=O)c1cc(O)c(O)c(O)c1 [Propyl gallate]")
"330 µM"
>>> recorded_measurement("C[C@H]1c2cccc(O)c2C(=O)C2=C(O)[C@]3(O)C(=O)C(C(N)=O)=C(O)[C@@H](N(C)C)[C@@H]3[C@@H](O)[C@@H]21 [Doxycycline]")
"33 µM"
>>> recorded_measurement("O=C1CN(/N=C/c2ccc([N+](=O)[O-])o2)C(=O)N1 [Nitrofurantoin]")
"44 µM"

----------
pIC50: −log10 of the molar value.
// values below are pIC50; system is bovine serum albumin (BSA)
metric: pIC50

>>> recorded_measurement("O=c1c(O)c(-c2ccccc2)oc2cc(O)cc(O)c12")
3.96
>>> recorded_measurement("NC[C@H](O)c1ccc(O)c(O)c1 [D-Norepinephrine]")
4.18
>>> recorded_measurement("O=C(N[C@H](CO)[C@H](O)c1ccc([N+](=O)[O-])cc1)C(Cl)Cl")
2.89
>>> recorded_measurement("CN(C)c1ccc(O)c2c1C[C@H]1C[C@H]3[C@H](N(C)C)C(O)=C(C(N)=O)C(=O)[C@@]3(O)C(O)=C1C2=O")
4.34

----------
In this section we review reported Peak area as % of total area of all glycoforms, 14,533 values for a set of compounds.
Tested on: lysozyme
Test: ESI-MS of lysozyme glycoforms after incubation with D-ribose
Conditions: lysozyme + 2D-ribose − 5H2O (14,533 Da); 37° C., 5 days
metric: Peak area as % of total area of all glycoforms, 14,533 (%)

>>> recorded_measurement("CC(C)NC[C@H](O)c1ccc(O)c(O)c1 [L-Isoproterenol]")
1.0
>>> recorded_measurement("CNC[C@H](O)c1ccc(O)c(O)c1 [L-Epinephrine]")
0.0
>>> recorded_measurement("O=C1c2c(O)ccc(O)c2C(=O)c2c(NCCNCCO)ccc(NCCNCCO)c21 [Mitoxantrone]")
1.3
>>> recorded_measurement("NC[C@H](O)c1ccc(O)c(O)c1 [D-Norepinephrine]")
0.0
>>> recorded_measurement("O=Cc1ccc(O)c(O)c1 [3,4-Dihydroxybenzaldehyde]")
0.0
>>> recorded_measurement("O=c1oc2c(O)c(O)cc3c(=O)oc4c(O)c(O)cc1c4c23 [Ellagic acid]")
0.0
>>> recorded_measurement("Cc1cc(N)c2ccccc2c1O [Vitamin K5]")
1.6
>>> recorded_measurement("O=C1C[C@@H](c2ccc(O)cc2)Oc2cc(O)cc(O)c21 [Naringenin]")
1.8
>>> recorded_measurement("O=c1c(O)c(-c2ccccc2)oc2cc(O)cc(O)c12 [Galangin]")
2.2
>>> recorded_measurement("Nc1ncc([N+](=O)[O-])cn1 [2-Amino-5-nitropyrimidine]")
2.0

----------
pIC50: −log10 of the molar value.
// values below are pIC50; system is bovine serum albumin (BSA)
metric: pIC50

>>> recorded_measurement("COc1cc(C2Oc3cc([C@H]4Oc5cc(O)cc(O)c5C(=O)[C@@H]4O)ccc3OC2CO)ccc1O (stereo partly drawn) [Silibinin]")
3.12
>>> recorded_measurement("CNC(=C[N+](=O)[O-])NCCSCc1ccc(CN(C)C)o1 [Ranitidine]")
2.96
>>> recorded_measurement("Oc1ccc(CC2NCCc3cc(O)c(O)cc32)cc1O (racemic) [(±)-Tetrahydropapaveroline]")
4.05
>>> recorded_measurement("CC(C)C(=O)Nc1ccc([N+](=O)[O-])c(C(F)(F)F)c1 [Flutamide]")
2.89
>>> recorded_measurement("O=c1cc(-c2ccccc2)oc2cc(O)cc(O)c12 [Chrysin]")
2.68
>>> recorded_measurement("C[C@](N)(Cc1ccc(O)c(O)c1)C(=O)O [L-α-Methyl-DOPA]")
4.14
>>> recorded_measurement("CS(=O)(=O)Nc1ccc([N+](=O)[O-])cc1Oc1ccccc1 [Nimesulide]")
3.46

----------
System: lysozyme
Test: ESI-MS of lysozyme glycoforms after incubation with D-ribose
Conditions: lysozyme + D-ribose − 2H2O (14,419 Da); 37° C., 5 days
Criterion: Peak area as % of total area of all glycoforms, 14,419 meeting or surpassing 8%. Met: 1. Not met: -1.

>>> answer_label("O=c1cc(-c2ccc(O)c(O)c2)oc2ccc(O)cc12 [6,3′,4′-Trihydroxyflavone]")
1
>>> answer_label("O=c1cc(-c2cc(O)c(O)c(O)c2)oc2cc(O)cc(O)c12 [5,7,3′,4′,5′-Pentahydroxyflavone]")
1
>>> answer_label("CC(C)NC[C@@H](O)c1ccc(O)c(O)c1")
-1
>>> answer_label("O=C1C=C(O)C(=O)c2ccccc21")
-1
>>> answer_label("O=c1c(O)c(-c2ccccc2)oc2cc(O)cc(O)c12")
1
>>> answer_label("O=c1oc2c(O)c(O)cc3c(=O)oc4c(O)c(O)cc1c4c23")
-1
>>> answer_label("C[C@@](Cc1ccc(O)c(O)c1)(NN)C(=O)O [S(−)-Carbidopa]")
-1
>>> answer_label("Oc1ccc(CC2NCCc3cc(O)c(O)cc32)cc1O (racemic) [(±)-Tetrahydropapaveroline]")
-1

----------
System: lysozyme
Assay: ESI-MS of lysozyme glycoforms after incubation with D-ribose;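 note: lysozyme incubated with D-ribose, with or without anti-glycation agents, then separated by reversed-phase HPLC and analysed by electrospray mass spectrometry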
Conditions: lysozyme with one carboxymethylated Lys residue (14,364 Da); 37° C., 5 days
Criterion: Peak area as % of total area of all glycoforms, 14,364 meeting or surpassing 4%. Met: condition met. Not met: condition not met.

>>> answer_label("CN(C)[C@@H]1C(O)=C(C(N)=O)C(=O)[C@@]2(O)C(O)=C3C(=O)c4c(O)ccc(Cl)c4[C@@H](O)[C@H]3C[C@@H]12")
"condition met"
>>> answer_label("C[C@@](Cc1ccc(O)c(O)c1)(NN)C(=O)O [S(−)-Carbidopa]")
"condition not met"
>>> answer_label("O=C(O)c1cc(/N=N/c2ccc(S(=O)(=O)Nc3ccccn3)cc2)ccc1O")
"condition not met"
>>> answer_label("O=c1oc2c(O)c(O)cc3c(=O)oc4c(O)c(O)cc1c4c23")
"condition not met"
>>> answer_label("NC[C@@H](O)c1ccc(O)c(O)c1 [L-Norepinephrine]")
"condition met"
>>> answer_label("CNCC(=O)c1ccc(O)c(O)c1")
"condition met"
>>> answer_label("O=c1cc(-c2ccc(O)c(O)c2)oc2cc(O)cc(O)c12")
"condition not met"
>>> answer_label("C[C@](N)(Cc1ccc(O)c(O)c1)C(=O)O")
"condition not met"

----------
Test system: bovine serum albumin (BSA)
Test: Maillard fluorescence-based assay of AGEs formation, IC50 determination (BSA + D-ribose)
Conditions: inhibition of Maillard fluorescence development; 0.075 mM BSA, 50 mM D-ribose, 37° C., 5 days
Structures can show the parent of a compound that is named as a salt.
metric: IC50 (µM)

>>> recorded_measurement("CC(=O)Nc1ncc([N+](=O)[O-])s1")
82
>>> recorded_measurement("O=C1CN(/N=C/c2ccc(-c3ccc([N+](=O)[O-])cc3)o2)C(O)=N1")
100
>>> recorded_measurement("CC(CCc1ccccc1)NCC(=O)c1ccc(O)c(O)c1 (stereo not drawn) [hydrochloride]")
890
>>> recorded_measurement("O=c1cc(-c2ccccc2O)oc2cc(O)cc(O)c12 [5,7,2′-Trihydroxyflavone]")
220
>>> recorded_measurement("Oc1ccc(Cl)c2cccnc12")
440
>>> recorded_measurement("O=C(O[C@@H]1Cc2c(O)cc(O)cc2O[C@@H]1c1cc(O)c(O)c(O)c1)c1cc(O)c(O)c(O)c1 [(−)-Epigallocatechin gallate]")
48
>>> recorded_measurement("N[C@@H](Cc1cc(I)c(O)c(I)c1)C(=O)O")
1500
>>> recorded_measurement("O=c1cc(-c2cc(O)c(O)c(O)c2)oc2cc(O)cc(O)c12 [5,7,3′,4′,5′-Pentahydroxyflavone]")
210
>>> recorded_measurement("CC(CCc1ccccc1)NC(C)C(O)c1ccc(O)cc1 (stereo not drawn)")
1800
>>> recorded_measurement("N=C(N)NN")
345
>>> recorded_measurement("Cc1cc2c(C(C)C)c(O)c(O)c(C=O)c2c(O)c1-c1c(C)cc2c(C(C)C)c(O)c(O)c(C=O)c2c1O")
110
>>> recorded_measurement("COc1ccc(-c2cc(=O)c3c(O)cc(O)cc3o2)cc1")
510
>>> recorded_measurement("O=c1c(O)c(-c2ccc(O)c(O)c2)oc2ccccc12 [3,3′,4′-Trihydroxyflavone]")
1800
>>> recorded_measurement("CCC(NC(C)C)C(O)c1ccc(O)c(O)c1 (stereo not drawn)")
25
>>> recorded_measurement("O=[N+]([O-])c1cc([As](=O)(O)O)ccc1O")
230
>>> recorded_measurement("O=c1c(O)cccc2cc(O)c(O)c(O)c12")
76
>>> recorded_measurement("NCCc1cc(O)c(O)cc1O [6-Hydroxydopamine]")
95
>>> recorded_measurement("Oc1cc(O)c2c(c1)O[C@H](c1ccc(O)c(O)c1)[C@@H](O)C2 [(+)-Catechin]")
19
